# Assay system: Human HDAC9 (Homo sapiens, UniProt Q9UKV0)
# Construct: amino acids 604-1066 with C-terminal His tag; His (C); host or cells: baculovirus expression system
# Sequence (Q9UKV0 604-1066 isoform Q9UKV0-5): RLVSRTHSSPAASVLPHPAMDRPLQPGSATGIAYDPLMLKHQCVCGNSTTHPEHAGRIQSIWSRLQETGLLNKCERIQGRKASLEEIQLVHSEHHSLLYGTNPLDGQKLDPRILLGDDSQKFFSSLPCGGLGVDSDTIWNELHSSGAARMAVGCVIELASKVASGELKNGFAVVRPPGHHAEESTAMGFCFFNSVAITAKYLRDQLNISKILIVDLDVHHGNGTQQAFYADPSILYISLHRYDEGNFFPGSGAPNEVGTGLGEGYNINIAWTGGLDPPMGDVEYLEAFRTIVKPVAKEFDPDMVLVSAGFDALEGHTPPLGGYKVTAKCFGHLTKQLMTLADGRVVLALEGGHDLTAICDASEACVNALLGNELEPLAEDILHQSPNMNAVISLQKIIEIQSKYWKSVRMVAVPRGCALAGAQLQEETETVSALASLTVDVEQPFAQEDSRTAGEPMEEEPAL
# Experimental details: HDAC9 biochemical assay, class IIa-specific substrate
# Test conditions: read-out: HDAC Isoform IC50 (nM) 9

>  <Line notation>
FC(F)(F)c1nc(-c2ccc(CN(c3cnccn3)c3ncccc3N3CCOCC3)s2)no1

>  <Assay system>
Human HDAC9 (Homo sapiens, UniProt Q9UKV0)

>  <IC50>
≤ 10000 nM

$$$$
>  <Line notation>
FC(F)(F)c1nc(-c2ccc(CN(c3cnccn3)c3cc(-c4ccccn4)cnn3)s2)no1

>  <Assay system>
Human HDAC9 (Homo sapiens, UniProt Q9UKV0)

>  <IC50>
≤ 10000 nM

$$$$
>  <Line notation>
O=C(c1cnnc(N(Cc2ccc(-c3noc(C(F)(F)F)n3)s2)c2cnccn2)c1)N1CCCC1

>  <Assay system>
Human HDAC9 (Homo sapiens, UniProt Q9UKV0)

>  <IC50>
≤ 10000 nM

$$$$
>  <Line notation>
Cc1cnnc(N(Cc2ccc(-c3noc(C(F)(F)F)n3)s2)c2cnccn2)c1

>  <Assay system>
Human HDAC9 (Homo sapiens, UniProt Q9UKV0)

>  <IC50>
≤ 10000 nM

$$$$
>  <Line notation>
CS(=O)(=O)c1ccc(N(Cc2ccc(-c3noc(C(F)(F)F)n3)s2)c2cnccn2)nn1

>  <Assay system>
Human HDAC9 (Homo sapiens, UniProt Q9UKV0)

>  <IC50>
≤ 10000 nM

$$$$
>  <Line notation>
Cc1ncnc(C)c1N(Cc1ccc(-c2noc(C(F)(F)F)n2)s1)c1cnccn1

>  <Assay system>
Human HDAC9 (Homo sapiens, UniProt Q9UKV0)

>  <IC50>
≤ 1000 nM

$$$$
>  <Line notation>
Cc1cnc(C)c(N(Cc2ccc(-c3noc(C(F)(F)F)n3)s2)c2cnccn2)n1

>  <Assay system>
Human HDAC9 (Homo sapiens, UniProt Q9UKV0)

>  <IC50>
≤ 1000 nM

$$$$
>  <Line notation>
FC(F)(F)c1cnc(N(Cc2ccc(-c3noc(C(F)(F)F)n3)s2)c2cnccn2)cn1

>  <Assay system>
Human HDAC9 (Homo sapiens, UniProt Q9UKV0)

>  <IC50>
≤ 10000 nM

$$$$
>  <Line notation>
FC(F)(F)c1cnnc(N(Cc2ccc(-c3noc(C(F)(F)F)n3)s2)c2ccncc2)c1

>  <Assay system>
Human HDAC9 (Homo sapiens, UniProt Q9UKV0)

>  <IC50>
≤ 10000 nM

$$$$
>  <Line notation>
FC(F)(F)c1nc(-c2ccc(CN(c3cccnc3)c3cnccn3)s2)no1

>  <Assay system>
Human HDAC9 (Homo sapiens, UniProt Q9UKV0)

>  <IC50>
≤ 1000 nM

$$$$
>  <Line notation>
FC(F)c1cnnc(N(Cc2ccc(-c3noc(C(F)(F)F)n3)s2)c2cnccn2)c1

>  <Assay system>
Human HDAC9 (Homo sapiens, UniProt Q9UKV0)

>  <IC50>
≤ 10000 nM

$$$$
>  <Line notation>
Fc1cc(-c2noc(C(F)(F)F)n2)sc1CN(c1cnccn1)c1cnccn1

>  <Assay system>
Human HDAC9 (Homo sapiens, UniProt Q9UKV0)

>  <IC50>
≤ 10000 nM

$$$$
>  <Line notation>
FC(F)(F)c1nc(-c2ccc(CN(c3cnccn3)c3cc(C4CC4)ccn3)s2)no1

>  <Assay system>
Human HDAC9 (Homo sapiens, UniProt Q9UKV0)

>  <IC50>
> 10000 nM

$$$$
>  <Line notation>
COC1CN(Cc2ccnc(N(Cc3ccc(-c4noc(C(F)(F)F)n4)s3)c3cnccn3)c2)C1

>  <Assay system>
Human HDAC9 (Homo sapiens, UniProt Q9UKV0)

>  <IC50>
≤ 10000 nM

$$$$
>  <Line notation>
FC(F)(F)c1nc(-c2ccc(CN(c3cnccn3)c3cnc(N4CCOCC4)cn3)s2)no1

>  <Assay system>
Human HDAC9 (Homo sapiens, UniProt Q9UKV0)

>  <IC50>
≤ 10000 nM

$$$$
>  <Line notation>
O=C(c1cnnc(N(Cc2ccc(-c3noc(C(F)(F)F)n3)s2)c2cnccn2)c1)N1CC[S+]([O-])CC1

>  <Assay system>
Human HDAC9 (Homo sapiens, UniProt Q9UKV0)

>  <IC50>
≤ 10000 nM

$$$$

The reported numbers originate from patent US20210038607A1.
